Target: ZFP SBS#546 (synthetic)
Sequence (chain, as listed by the source): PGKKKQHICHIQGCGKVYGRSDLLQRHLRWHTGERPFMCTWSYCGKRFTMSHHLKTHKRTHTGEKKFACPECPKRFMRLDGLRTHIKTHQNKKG
Assay: EMSA
Details: tags: MBP fusion
Readout label: Kd

INSERT INTO assay_data (binder, value) VALUES
  ('GAGTGTGTGA (dsDNA) DNA 1: GAGTGTGTGA DNA 2: TCACACACTC', '500 nM');
